Hey, just so you know, these numbers are from ChEMBL document CHEMBL5154944.

# STUDY_SYSTEM: CYP2D6 (Homo sapiens)
# Sequence (P10635 whole entry): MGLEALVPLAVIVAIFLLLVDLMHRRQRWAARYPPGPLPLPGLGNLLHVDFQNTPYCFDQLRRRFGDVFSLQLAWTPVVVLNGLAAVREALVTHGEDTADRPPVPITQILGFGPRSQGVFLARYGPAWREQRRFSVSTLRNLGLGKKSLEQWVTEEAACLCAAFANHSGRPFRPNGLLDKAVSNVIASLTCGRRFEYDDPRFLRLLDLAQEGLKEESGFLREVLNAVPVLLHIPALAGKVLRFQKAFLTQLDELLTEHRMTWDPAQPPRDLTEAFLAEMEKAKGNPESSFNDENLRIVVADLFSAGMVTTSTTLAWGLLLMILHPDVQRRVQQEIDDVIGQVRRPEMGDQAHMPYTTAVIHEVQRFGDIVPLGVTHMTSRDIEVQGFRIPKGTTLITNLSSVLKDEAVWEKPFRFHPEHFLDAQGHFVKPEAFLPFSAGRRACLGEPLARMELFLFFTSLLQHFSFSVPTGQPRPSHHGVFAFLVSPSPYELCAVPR
# METHOD_SUMMARY: Inhibition of CYP2D6 in human liver microsomes at 10 uM using bufuralol as substrate preincubated for 5 mins followed by addition of NADPH measured after 10 mins by LC/MS/MS analysis relative to control
# Type: ADME, Microsome
# REPORTED_CONDITIONS: probe bufuralol, time 15 min
Non-standard residues stand in square brackets, D forms with d. Residues, ends and D or L forms follow the SMILES beside them. *: point of attachment. Benzoyl(4-OPh(4-CONH2)) = NC(=O)c1ccc(Oc2ccc(C(=O)*)cc2)cc1; NMeE = CN[C@@H](CCC(=O)O)C(=O)O; β3hP = O=C(O)C[C@@H]1CCCN1; Dab = NCC[C@H](N)C(=O)O; Ava = NCCCCC(=O)O
ASSAY_ENDPOINT: inhibition at 10 min, 10 µM (%)
Give the number; % is assumed, so skip it.

QUERY: Answer with reported inhibition at 10 min, 10 µM of CC(C)C[C@H](NC(=O)[C@H](CCN)NC(=O)[C@H](CC(=O)O)NC(=O)[C@H](CCC(=O)O)NC(=O)CCCCNC(=O)c1ccc(Oc2ccc(C(N)=O)cc2)cc1)C(=O)N(C)[C@@H](CCC(=O)O)C(=O)N1CCC[C@H]1CC(N)=O ({Benzoyl(4-OPh(4-CONH2))-Ava}-ED[Dab]L[NMeE][β3hP]-NH2)
RESULT: -2.5

---

Non-standard residues stand in square brackets, D forms with d. Residues, ends and D or L forms follow the SMILES beside them. *: point of attachment. Benzoyl(4-OPh(4-CONH2)) = NC(=O)c1ccc(Oc2ccc(C(=O)*)cc2)cc1; Benzenesulfonyl(4-OPh) = O=S(=O)(c1ccc(Oc2ccccc2)cc1)*; NMeE = CN[C@@H](CCC(=O)O)C(=O)O; NMeV = CN[C@H](C(=O)O)C(C)C; β3hP = O=C(O)C[C@@H]1CCCN1; Dab = NCC[C@H](N)C(=O)O; Ava = NCCCCC(=O)O; GABA = NCCCC(=O)O; βAla = NCCC(=O)O
Exercise: state measured IC50 for each of the compounds provided.
Give the number; nM is assumed, so skip it.

QUERY: Specify IC50 for CSCC[C@H](NC(=O)[C@H](CC(C)C)NC(=O)[C@H](C)NC(=O)[C@H](CC(=O)O)NC(=O)[C@H](CC(N)=O)NC(=O)CCNS(=O)(=O)c1ccc(Oc2ccccc2)cc1)C(=O)N1CCC[C@H]1C(N)=O ({Benzenesulfonyl(4-OPh)-βAla}-NDALMP-NH2) , system Collagenase 3 (Homo sapiens, UniProt P45452).
RESULT: 114

QUERY: Specify IC50 for CC(C)C[C@H](NC(=O)[C@H](CCN)NC(=O)[C@H](CC(=O)O)NC(=O)[C@H](CC(N)=O)NC(=O)CCNC(=O)c1ccc(Oc2ccc(C(N)=O)cc2)cc1)C(=O)N(C)[C@@H](CCC(=O)O)C(=O)N1CCC[C@H]1CC(N)=O ({Benzoyl(4-OPh(4-CONH2))-βAla}-ND[Dab]L[NMeE][β3hP]-NH2) , system Collagenase 3 (Homo sapiens, UniProt P45452).
RESULT: 146

QUERY: Specify IC50 for CC(C)C[C@H](NC(=O)[C@H](CCN)NC(=O)[C@H](CC(=O)O)NC(=O)[C@H](CC(N)=O)NC(=O)CCCCNC(=O)c1ccc(Oc2ccc(C(N)=O)cc2)cc1)C(=O)N(C)[C@@H](CCC(=O)O)C(=O)N1CCC[C@H]1CC(N)=O ({Benzoyl(4-OPh(4-CONH2))-Ava}-ND[Dab]L[NMeE][β3hP]-NH2) , system Collagenase 3 (Homo sapiens, UniProt P45452).
RESULT: 57

QUERY: Specify IC50 for CC(C)C[C@H](NC(=O)[C@H](C)NC(=O)[C@H](CC(=O)O)NC(=O)[C@H](CC(N)=O)NC(=O)CCCNS(=O)(=O)c1ccc(Oc2ccccc2)cc1)C(=O)N(C)[C@H](C(=O)N1CCC[C@H]1C(N)=O)C(C)C ({Benzenesulfonyl(4-OPh)-GABA}-NDAL[NMeV]P-NH2) , system Collagenase 3 (Homo sapiens, UniProt P45452).
RESULT: 21

---

# METHOD_SUMMARY: Clearance in fasted Sprague-Dawley rat at 1 mg/kg, iv by LC-MS/MS analysis
# Format: ADME, organism-based
# REPORTED_CONDITIONS: in vivo
Non-standard residues stand in square brackets, D forms with d. Residues, ends and D or L forms follow the SMILES beside them. *: point of attachment. Benzoyl(4-OPh(4-CONH2)) = NC(=O)c1ccc(Oc2ccc(C(=O)*)cc2)cc1; NMeE = CN[C@@H](CCC(=O)O)C(=O)O; β3hP = O=C(O)C[C@@H]1CCCN1; Dab = NCC[C@H](N)C(=O)O; Ava = NCCCCC(=O)O
ASSAY_ENDPOINT: clearance

QUERY: Answer with reported clearance of CC(C)C[C@H](NC(=O)[C@H](CCN)NC(=O)[C@H](CC(=O)O)NC(=O)[C@H](CCC(=O)O)NC(=O)CCCCNC(=O)c1ccc(Oc2ccc(C(N)=O)cc2)cc1)C(=O)N(C)[C@@H](CCC(=O)O)C(=O)N1CCC[C@H]1CC(N)=O ({Benzoyl(4-OPh(4-CONH2))-Ava}-ED[Dab]L[NMeE][β3hP]-NH2)
RESULT: 11.7 mL/min/kg

---

# METHOD_SUMMARY: physchem
# REPORTED_CONDITIONS: phosphate buffer, pH 7.4
Non-standard residues stand in square brackets, D forms with d. Residues, ends and D or L forms follow the SMILES beside them. *: point of attachment. Benzoyl(4-OPh(4-CONH2)) = NC(=O)c1ccc(Oc2ccc(C(=O)*)cc2)cc1; NMeE = CN[C@@H](CCC(=O)O)C(=O)O; β3hP = O=C(O)C[C@@H]1CCCN1; Dab = NCC[C@H](N)C(=O)O; Ava = NCCCCC(=O)O
ASSAY_ENDPOINT: remaining at 336 h (%)
Give the number; % is assumed, so skip it.

QUERY: Answer with reported remaining at 336 h of CC(C)C[C@H](NC(=O)[C@H](CCN)NC(=O)[C@H](CC(=O)O)NC(=O)[C@H](CCC(=O)O)NC(=O)CCCCNC(=O)c1ccc(Oc2ccc(C(N)=O)cc2)cc1)C(=O)N(C)[C@@H](CCC(=O)O)C(=O)N1CCC[C@H]1CC(N)=O ({Benzoyl(4-OPh(4-CONH2))-Ava}-ED[Dab]L[NMeE][β3hP]-NH2)
RESULT: 95.1

QUERY: Answer with reported remaining at 336 h of CC(C)C[C@H](NC(=O)[C@H](CCN)NC(=O)[C@H](CC(=O)O)NC(=O)[C@H](CC(N)=O)NC(=O)CCCCNC(=O)c1ccc(Oc2ccc(C(N)=O)cc2)cc1)C(=O)N(C)[C@@H](CCC(=O)O)C(=O)N1CCC[C@H]1CC(N)=O ({Benzoyl(4-OPh(4-CONH2))-Ava}-ND[Dab]L[NMeE][β3hP]-NH2)
RESULT: 89.4

---

# STUDY_SYSTEM: 72 kDa type IV collagenase (Homo sapiens, UniProt P08253)
# Sequence (P08253 whole entry): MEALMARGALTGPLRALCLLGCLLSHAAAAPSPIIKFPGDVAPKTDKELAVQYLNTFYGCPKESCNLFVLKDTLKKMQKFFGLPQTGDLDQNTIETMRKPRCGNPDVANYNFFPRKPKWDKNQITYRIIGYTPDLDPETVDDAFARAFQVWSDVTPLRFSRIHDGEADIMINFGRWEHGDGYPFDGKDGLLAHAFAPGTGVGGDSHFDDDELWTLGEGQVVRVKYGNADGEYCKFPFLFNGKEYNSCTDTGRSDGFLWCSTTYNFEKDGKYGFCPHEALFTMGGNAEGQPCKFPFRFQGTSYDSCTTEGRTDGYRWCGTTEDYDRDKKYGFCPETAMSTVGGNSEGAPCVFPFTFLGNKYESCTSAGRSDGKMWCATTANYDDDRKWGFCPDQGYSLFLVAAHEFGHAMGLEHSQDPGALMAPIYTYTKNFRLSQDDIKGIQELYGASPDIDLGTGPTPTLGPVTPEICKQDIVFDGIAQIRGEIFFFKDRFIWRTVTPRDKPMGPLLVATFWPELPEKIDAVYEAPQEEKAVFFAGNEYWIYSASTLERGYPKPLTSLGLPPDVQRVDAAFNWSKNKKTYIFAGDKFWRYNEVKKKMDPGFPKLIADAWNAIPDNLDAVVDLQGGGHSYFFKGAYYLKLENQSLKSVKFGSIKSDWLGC
Non-standard residues stand in square brackets, D forms with d. Residues, ends and D or L forms follow the SMILES beside them. *: point of attachment. Benzoyl(4-OPh(4-CONH2)) = NC(=O)c1ccc(Oc2ccc(C(=O)*)cc2)cc1; Benzenesulfonyl(4-OPh) = O=S(=O)(c1ccc(Oc2ccccc2)cc1)*; Benzenesulfonyl(4-Ph) = O=S(=O)(c1ccc(-c2ccccc2)cc1)*; X1 = O=C(CCCCS(=O)(=O)c1ccc(Oc2ccccc2)cc1)*; NMeI = CC[C@H](C)[C@H](NC)C(=O)O; NMeE = CN[C@@H](CCC(=O)O)C(=O)O; NMeL = CN[C@@H](CC(C)C)C(=O)O; NMeM = CN[C@@H](CCSC)C(=O)O; NMeV = CN[C@H](C(=O)O)C(C)C; β3hP = O=C(O)C[C@@H]1CCCN1; Dab = NCC[C@H](N)C(=O)O; Ava = NCCCCC(=O)O; GABA = NCCCC(=O)O; βAla = NCCC(=O)O
Entries whose IC50 is below 0.08 nM take Yes; entries at or above 0.08 nM take No.

QUERY: Hi there! Is IC50 for CSCC[C@@H](C(=O)N1CCC[C@H]1C(N)=O)N(C)C(=O)[C@H](CC(C)C)NC(=O)[C@H](C)NC(=O)[C@H](CC(=O)O)NC(=O)[C@H](CC(N)=O)NC(=O)CCCNS(=O)(=O)c1ccc(Oc2ccccc2)cc1 ({Benzenesulfonyl(4-OPh)-GABA}-NDAL[NMeM]P-NH2) below 0.08 nM, do you know?
RESULT: No

QUERY: Hi there! Is IC50 for CSCC[C@H](NC(=O)[C@H](CC(C)C)NC(=O)[C@H](C)NC(=O)[C@H](CC(=O)O)NC(=O)[C@H](CC(N)=O)NC(=O)CCNS(=O)(=O)c1ccc(-c2ccccc2)cc1)C(=O)N1CCC[C@H]1C(N)=O ({Benzenesulfonyl(4-Ph)-βAla}-NDALMP-NH2) below 0.08 nM, do you know?
RESULT: No

QUERY: Hi there! Is IC50 for CC(C)C[C@H](NC(=O)[C@H](C)NC(=O)[C@H](CC(=O)O)NC(=O)[C@H](CC(N)=O)NC(=O)CCCNS(=O)(=O)c1ccc(Oc2ccccc2)cc1)C(=O)N(C)[C@@H](CC(C)C)C(=O)N1CCC[C@H]1CC(N)=O ({Benzenesulfonyl(4-OPh)-GABA}-NDAL[NMeL][β3hP]-NH2) below 0.08 nM, do you know?
RESULT: Yes

QUERY: Hi there! Is IC50 for CC[C@H](C)[C@@H](C(=O)N1CCC[C@H]1CC(N)=O)N(C)C(=O)[C@H](CC(C)C)NC(=O)[C@H](C)NC(=O)[C@H](CC(=O)O)NC(=O)[C@H](CC(N)=O)NC(=O)CCCNS(=O)(=O)c1ccc(Oc2ccccc2)cc1 ({Benzenesulfonyl(4-OPh)-GABA}-NDAL[NMeI][β3hP]-NH2) below 0.08 nM, do you know?
RESULT: Yes

QUERY: Hi there! Is IC50 for CSCC[C@H](NC(=O)[C@H](CC(C)C)NC(=O)[C@H](C)NC(=O)[C@H](CC(=O)O)NC(=O)[C@H](CC(N)=O)NC(=O)CNS(=O)(=O)c1ccc(Oc2ccccc2)cc1)C(=O)N1CCC[C@H]1C(N)=O ({Benzenesulfonyl(4-OPh)}-GNDALMP-NH2) below 0.08 nM, do you know?
RESULT: No

QUERY: Hi there! Is IC50 for CSCC[C@H](NC(=O)[C@H](CC(C)C)NC(=O)[C@H](C)NC(=O)[C@H](CC(=O)O)NC(=O)[C@H](CC(N)=O)NC(=O)CCCCS(=O)(=O)c1ccc(Oc2ccccc2)cc1)C(=O)N1CCC[C@H]1C(N)=O (X1-NDALMP-NH2) below 0.08 nM, do you know?
RESULT: No

QUERY: Hi there! Is IC50 for CSCC[C@H](NC(=O)[C@H](CC(C)C)NC(=O)[C@H](C)NC(=O)[C@H](CC(=O)O)NC(=O)[C@H](CC(N)=O)NC(=O)CCCCNS(=O)(=O)c1ccc(-c2ccccc2)cc1)C(=O)N1CCC[C@H]1C(N)=O ({Benzenesulfonyl(4-Ph)-Ava}-NDALMP-NH2) below 0.08 nM, do you know?
RESULT: No

QUERY: Hi there! Is IC50 for CC(C)C[C@H](NC(=O)[C@H](CCN)NC(=O)[C@H](CC(=O)O)NC(=O)[C@H](CC(N)=O)NC(=O)CCCCNC(=O)c1ccc(Oc2ccc(C(N)=O)cc2)cc1)C(=O)N(C)[C@@H](CCC(=O)O)C(=O)N1CCC[C@H]1CC(N)=O ({Benzoyl(4-OPh(4-CONH2))-Ava}-ND[Dab]L[NMeE][β3hP]-NH2) below 0.08 nM, do you know?
RESULT: Yes

QUERY: Hi there! Is IC50 for CC(C)C[C@H](NC(=O)[C@H](C)NC(=O)[C@H](CC(=O)O)NC(=O)[C@H](CC(N)=O)NC(=O)CCCNS(=O)(=O)c1ccc(Oc2ccccc2)cc1)C(=O)N(C)[C@H](C(=O)N1CCC[C@H]1CC(N)=O)C(C)C ({Benzenesulfonyl(4-OPh)-GABA}-NDAL[NMeV][β3hP]-NH2) below 0.08 nM, do you know?
RESULT: Yes

QUERY: Hi there! Is IC50 for CSCC[C@H](NC(=O)[C@H](CC(C)C)NC(=O)[C@H](C)NC(=O)[C@H](CC(=O)O)NC(=O)[C@H](CC(N)=O)NC(=O)CCCNS(=O)(=O)c1ccc(Oc2ccccc2)cc1)C(=O)N1CCC[C@H]1C(N)=O ({Benzenesulfonyl(4-OPh)-GABA}-NDALMP-NH2) below 0.08 nM, do you know?
RESULT: No

QUERY: Hi there! Is IC50 for CC[C@H](C)[C@@H](C(=O)N1CCC[C@H]1CC(N)=O)N(C)C(=O)[C@H](CC(C)C)NC(=O)[C@H](CCN)NC(=O)[C@H](CC(=O)O)NC(=O)[C@H](CC(N)=O)NC(=O)CCCNS(=O)(=O)c1ccc(Oc2ccccc2)cc1 ({Benzenesulfonyl(4-OPh)-GABA}-ND[Dab]L[NMeI][β3hP]-NH2) below 0.08 nM, do you know?
RESULT: No

QUERY: Hi there! Is IC50 for CC(C)C[C@H](NC(=O)[C@H](C)NC(=O)[C@H](CC(=O)O)NC(=O)[C@H](CC(N)=O)NC(=O)CCCNS(=O)(=O)c1ccc(Oc2ccccc2)cc1)C(=O)N(C)[C@@H](CC(C)C)C(=O)N1CCC[C@H]1C(N)=O ({Benzenesulfonyl(4-OPh)-GABA}-NDAL[NMeL]P-NH2) below 0.08 nM, do you know?
RESULT: Yes
